# Test details: Biodistribution in ICR mice after an iv injection
# Format: in vivo
# Condition set: Liver, 30 min after iv injection
# % dose/organ listing for each entry below

Query: Item under review: `CNc1ccc(-c2ccc3cc(OCCOCCOCCF)ccc3c2)cc1` . Reported % dose/organ?
Reply: 17.1 ± 1.54 % dose/organ

Query: Would you mind telling me what % dose/organ value was observed for CNc1ccc(-c2ccc3nc(OCCOCCOCC[18F])ccc3c2)cc1 [[^18F]34a] ?
Reply: 14.2 ± 0.91 % dose/organ

Query: Please look up its % dose/organ: CN(C)c1ccc(-c2ccc3nc(OCCOCCOCC[18F])ccc3c2)cc1 [[^18F]32a]
Reply: 11.2 ± 1.65 % dose/organ

Query: Any idea what % dose/organ was measured for CNc1ccc2cc(-c3ccc(OCCOCCOCC[18F])cc3)ccc2c1 [[^18F]19a] ?
Reply: 25.7 ± 0.95 % dose/organ
